- STUDY TARGET: human GCG receptor (human, UniProt P47871 26-477)
- Sequence (P47871 26-477): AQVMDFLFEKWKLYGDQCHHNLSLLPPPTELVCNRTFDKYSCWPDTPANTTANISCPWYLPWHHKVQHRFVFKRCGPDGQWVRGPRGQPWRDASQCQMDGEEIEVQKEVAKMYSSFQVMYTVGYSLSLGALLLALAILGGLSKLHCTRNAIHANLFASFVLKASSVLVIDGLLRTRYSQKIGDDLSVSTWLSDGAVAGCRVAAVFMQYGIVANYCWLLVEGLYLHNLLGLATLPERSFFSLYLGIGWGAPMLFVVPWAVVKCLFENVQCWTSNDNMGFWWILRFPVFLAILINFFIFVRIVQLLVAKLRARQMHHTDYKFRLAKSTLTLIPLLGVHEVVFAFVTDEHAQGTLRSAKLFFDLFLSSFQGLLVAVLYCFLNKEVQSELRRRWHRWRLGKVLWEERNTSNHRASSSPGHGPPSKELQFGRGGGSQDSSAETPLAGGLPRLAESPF
- TEST DETAILS: cell-based or functional assay
Bridge positions count the residues as written; N and C are the ends. Square brackets hold non-standard residues; d marks the D form. Ends that are not written are not given here. * marks the point of attachment. Acetyl(2-(4-imidazolyl)) = O=C(Cc1c[nH]cn1)*; Aib = CC(C)(N)C(=O)O
OBSERVABLE: In vitro activity compared with native peptide (%) vs Glucagon (cAMP EC50)

Below: 2 binders and their reported In vitro activity compared with native peptide (%) vs Glucagon (cAMP EC50).
- BINDER: "H[Aib]QGTFTSDVSSYLDGQAAKEFVAWLLKGC [triple agonist of SEQ ID NO: 6]"
  RESULT VALUE: "< 0.1%"
- BINDER: "H[Aib]QGTFTSDVSKYLDGQAAQEFVAWLLAGC [triple agonist of SEQ ID NO: 9]"
  RESULT VALUE: "0.13%"

# ---- query binder ----
Ask: Please give the documented In vitro activity compared with native peptide (%) vs Glucagon (cAMP EC50) of [Acetyl(2-(4-imidazolyl))][Aib]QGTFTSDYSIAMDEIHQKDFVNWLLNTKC (bridge 16-20) [triple agonist of SEQ ID NO: 94]
Result: < 0.1%
